# measurement.notes: Ratio of drug level in human LNCAP cells xenografted in C.B.-17/Icr +/+ Jcl mouse to blood of C.B.-17/Icr +/+ Jcl mouse xenografted with human LNCAP and PC3 cells at 25.9 MBq, iv after 30 mins
# Format: ADME, organism-based
# test.settings: LNCAP tumour xenograft relative to blood
value.type: Kp at 0.5 h
// return a plain number; no unit text

Please fill in: Kp at 0.5 h reported for O=C(O)CC[C@H](NC(=O)N[C@@H](CSC1CC(=O)N(CCCC[C@H](NC(=O)CNC(=O)c2cccc([125I])c2)C(=O)O)C1=O)C(=O)O)C(=O)O (stereo partly specified) = 7.2

* * *

# measurement.notes: Ratio of drug level in human PC3 cells xenografted in C.B.-17/Icr +/+ Jcl mouse to blood of C.B.-17/Icr +/+ Jcl mouse xenografted with human LNCAP and PC3 cells at 25.9 MBq, iv after 2 mins
# Type: ADME, organism-based
# test.settings: PC3 tumour xenograft relative to blood
value.type: Kp at 2 min

Entry O=C(O)CC[C@H](NC(=O)N[C@@H](CSC1CC(=O)N(CCCC[C@H](NC(=O)CNC(=O)c2cccc([125I])c2)C(=O)O)C1=O)C(=O)O)C(=O)O (stereo partly specified) ; Kp at 2 min = 0.4

* * *

# measurement.notes: Ratio of drug level in human PC3 cells xenografted in C.B.-17/Icr +/+ Jcl mouse to blood of C.B.-17/Icr +/+ Jcl mouse xenografted with human LNCAP and PC3 cells at 25.9 MBq, iv after 30 mins
# Type: ADME, organism-based
# test.settings: PC3 tumour xenograft relative to blood
value.type: Kp at 0.5 h
// no unit string in output, number only

The compound identified as O=C(O)CC[C@H](NC(=O)N[C@@H](CSC1CC(=O)N(CCCC[C@H](NC(=O)CNC(=O)c2cccc([125I])c2)C(=O)O)C1=O)C(=O)O)C(=O)O (stereo partly specified) registered its Kp at 0.5 h at 0.7

* * *

# measurement.notes: Ratio of drug level in human LNCAP cells xenografted in C.B.-17/Icr +/+ Jcl mouse to blood of C.B.-17/Icr +/+ Jcl mouse xenografted with human LNCAP and PC3 cells at 25.9 MBq, iv after 6 hrs
# Type: ADME, organism-based
# test.settings: LNCAP tumour xenograft relative to blood
value.type: Kp at 6 h
Simply state the number, no unit and no words.

O=C(O)CC[C@H](NC(=O)N[C@@H](CSC1CC(=O)N(CCCC[C@H](NC(=O)CNC(=O)c2cccc([125I])c2)C(=O)O)C1=O)C(=O)O)C(=O)O (stereo partly specified) has a reported Kp at 6 h of 13.3

* * *

# Tested on: Stomach
# measurement.notes: Biodistribution in stomach of C.B.-17/Icr +/+ Jcl mouse xenografted with human LNCAP and PC3 cells at 25.9 MBq, iv after 2 mins
# Type: ADME, organism-based
# test.settings: in vivo
value.type: Drug uptake (%ID/g)
// units = %ID/g; emit number, no label

Entry under test: O=C(O)CC[C@H](NC(=O)N[C@@H](CSC1CC(=O)N(CCCC[C@H](NC(=O)CNC(=O)c2cccc([125I])c2)C(=O)O)C1=O)C(=O)O)C(=O)O (stereo partly specified) . Its Drug uptake was 0.7

* * *

# measurement.notes: Ratio of drug level in human PC3 cells xenografted in C.B.-17/Icr +/+ Jcl mouse to blood of C.B.-17/Icr +/+ Jcl mouse xenografted with human LNCAP and PC3 cells at 25.9 MBq, iv after 3 hrs
# Format: ADME, organism-based
# test.settings: PC3 tumour xenograft relative to blood
value.type: Kp at 3 h

Short answer for O=C(O)CC[C@H](NC(=O)N[C@@H](CSC1CC(=O)N(CCCC[C@H](NC(=O)CNC(=O)c2cccc([125I])c2)C(=O)O)C1=O)C(=O)O)C(=O)O (stereo partly specified) : Kp at 3 h was 0.4
